Biological target: Oxytocin receptor (Homo sapiens, UniProt P30559)
Sequence (P30559 whole entry): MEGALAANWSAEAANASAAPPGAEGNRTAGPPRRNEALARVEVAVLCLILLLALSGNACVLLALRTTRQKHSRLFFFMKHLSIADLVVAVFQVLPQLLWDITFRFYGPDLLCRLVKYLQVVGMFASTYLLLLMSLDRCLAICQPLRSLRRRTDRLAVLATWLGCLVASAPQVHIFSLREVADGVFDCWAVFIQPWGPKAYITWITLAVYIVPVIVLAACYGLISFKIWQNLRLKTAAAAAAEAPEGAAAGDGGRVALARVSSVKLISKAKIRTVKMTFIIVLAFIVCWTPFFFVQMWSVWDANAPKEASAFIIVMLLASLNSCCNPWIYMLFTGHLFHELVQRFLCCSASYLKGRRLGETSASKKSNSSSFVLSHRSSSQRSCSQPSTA
Experiment: Displacement of [3H]oxytocin from human oxytocin receptor
# label = 1 if Ki < 0.1 nM else -1

Would you please look over these solved cases?
Compound: CC[C@H](C)[C@@H]1C(=O)N[C@H](C2Cc3ccccc3C2)C(=O)N1[C@@H](C(=O)N1CCOCC1)c1cnc(C)cc1C
Target Entity: Oxytocin receptor (Homo sapiens, UniProt P30559)
Group: 1
--
Compound: COc1ccc([C@H](C(=O)N2CCOCC2)N2C(=O)[C@@H](C3Cc4ccccc4C3)NC(=O)[C@H]2CC(C)C)cn1
Target Entity: Oxytocin receptor (Homo sapiens, UniProt P30559)
Group: -1
--
Compound: CCC(CC)[C@@H]1C(=O)N[C@H](C2Cc3ccccc3C2)C(=O)N1[C@@H](C(=O)N(C)C)c1ccc(C)nc1
Target Entity: Oxytocin receptor (Homo sapiens, UniProt P30559)
Group: 1
--
Compound: CC[C@H](C)[C@@H]1C(=O)N[C@H](C2Cc3ccccc3C2)C(=O)N1[C@@H](C(=O)NC)c1cc(C)cnc1C
Target Entity: Oxytocin receptor (Homo sapiens, UniProt P30559)
Group: -1
--
Compound: CCC(CC)[C@@H]1C(=O)N[C@H](C2Cc3ccccc3C2)C(=O)N1[C@@H](C(=O)N1CCOCC1)c1ccc(C)nc1
Target Entity: Oxytocin receptor (Homo sapiens, UniProt P30559)
Group: 1
--
Compound: CC(C)C[C@@H]1C(=O)N[C@H](C2Cc3ccccc3C2)C(=O)N1[C@@H](C(=O)N1CCOCC1)c1ccc(N(C)C)nc1
Target Entity: Oxytocin receptor (Homo sapiens, UniProt P30559)
Group: -1
--
Compound: CC[C@@H](C)[C@@H]1C(=O)N[C@H](C2Cc3ccccc3C2)C(=O)N1[C@@H](C(=O)N1CCOCC1)c1ccc(C)nc1
Target Entity: Oxytocin receptor (Homo sapiens, UniProt P30559)
Group: -1
--
Compound: COc1ccc([C@H](C(=O)N(C)C)N2C(=O)[C@@H](C3Cc4ccccc4C3)NC(=O)[C@H]2CC(C)C)cn1
Target Entity: Oxytocin receptor (Homo sapiens, UniProt P30559)
Group: -1

Shift focus to the following entry.
INPUT: Find out if reported Ki for CC[C@H](C)[C@@H]1C(=O)N[C@H](C2Cc3ccccc3C2)C(=O)N1[C@@H](C(=O)N1CCOCC1)c1ccc(C)nc1C [EPELSIBAN] is less than 0.1 nM
OUTPUT: -1
